biological target: FP receptor (Homo sapiens (Human)); assay: In vitro test of inhibition of human FP receptor activity (PGF2α-induced calcium flux in FP-expressing CHEM1 cells); settings: PGF2α 2 nM, some mean values of multiple determinations
Sequence (P43088 whole entry): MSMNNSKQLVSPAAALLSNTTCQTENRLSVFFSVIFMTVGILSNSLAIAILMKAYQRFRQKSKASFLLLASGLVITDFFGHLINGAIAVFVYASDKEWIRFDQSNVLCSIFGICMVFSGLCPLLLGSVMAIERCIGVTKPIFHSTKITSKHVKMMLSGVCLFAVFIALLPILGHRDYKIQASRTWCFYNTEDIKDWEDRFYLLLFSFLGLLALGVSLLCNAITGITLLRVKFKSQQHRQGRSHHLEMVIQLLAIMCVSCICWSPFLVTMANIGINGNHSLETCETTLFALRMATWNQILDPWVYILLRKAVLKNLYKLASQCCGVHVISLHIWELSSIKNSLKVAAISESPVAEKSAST
// reported IC50 for each item listed
Endpoint Name: IC50 (nM)

INSERT INTO results (molecule, experimental_value) VALUES
  ('Cc1c(N2CCCC(F)(F)C2)nc2ccc(Br)cc2c1C(=O)NCC(CCC(=O)O)c1cc(F)ccc1F (racemic) [Example 261]', 28),
  ('Cc1c(N2CCCCCC2)nc2ccc(Br)cc2c1C(=O)NCC(CCC(=O)O)c1ccccc1C(F)(F)F (single isomer, unassigned; (+)) [Example 122]', 6.7),
  ('Cc1c(N2CCCCCC2)nc2ccc(Br)cc2c1C(=O)NCC(CCC(=O)O)c1ccccc1C(F)(F)F (single isomer, unassigned; (-)) [Example 121]', 4.1),
  ('Cc1c(N2CCCC(C(N)=O)C2)nc2ccc(Br)cc2c1C(=O)NCC(CCC(=O)O)c1ccccc1Cl (centres unmarked)', 590),
  ('Cc1ccccc1C(CCC(=O)O)CNC(=O)c1c(C)c(N2CCCC(F)(F)C2)nc2ccc(Br)cc12 (single isomer, unassigned; (+)) [Example 231]', 39),
  ('Cc1c(N2CCCC(F)(F)C2)nc2ccc(Br)cc2c1C(=O)NCC(CCC(=O)O)c1ccccc1C(F)(F)F (single isomer, unassigned; (-)) [Example 118]', 8.5),
  ('Cc1c(N2CCCC2C)nc2ccc(Br)cc2c1C(=O)NCC(CCC(=O)O)c1ccccc1Cl (centres unmarked)', 7.8),
  ('Cc1c(N2CCOC(CO)C2)nc2ccc(Br)cc2c1C(=O)NCC(CCC(=O)O)c1cc(F)ccc1Cl (centres unmarked)', 490),
  ('Cc1c(N2CCCCCC2)nc2ccc(Br)cc2c1C(=O)NCC(CCC(=O)O)c1c(F)ccc(F)c1Cl (single isomer, unassigned) [Example 220]', 0.76),
  ('Cc1ccc(F)cc1C(CCC(=O)O)CNC(=O)c1c(C)c(N2CCCC(F)(F)C2)nc2ccc(Br)cc12 (racemic) [Example 150]', 22),
  ('COc1ccccc1C(CCC(=O)O)CNC(=O)c1c(C)c(N2CCCCCC2)nc2ccc(Br)cc12 (single isomer, unassigned; (-)) [Example 240]', 16),
  ('Cc1c(N2CCCCC2)nc2ccc(Br)cc2c1C(=O)NCC(CCC(=O)O)c1cccc(F)c1Cl (racemic) [Example 141]', 5.8),
  ('Cc1c(N2CCCC(C)C2)nc2ccc(Br)cc2c1C(=O)NCC(CCC(=O)O)c1ccccc1OC(F)(F)F (single isomer, unassigned; (-)) [Example 209]', 7),
  ('Cc1c(N2CCCC(F)C2)nc2ccc(Br)cc2c1C(=O)NCC(CCC(=O)O)c1ccccc1C(F)(F)F (centres unmarked) [Example 123]', 13),
  ('Cc1c(N2CCCC(F)(F)C2)nc2ccc(Br)cc2c1C(=O)NCC(CCC(=O)O)c1cc(F)ccc1F (single isomer, unassigned; (-)) [Example 262]', 18),
  ('Cc1c(N2CCCC(F)C2)nc2ccc(Br)cc2c1C(=O)NCC(CCC(=O)O)c1ccccc1OC(F)(F)F (single isomer, unassigned; (+)) [Example 204]', 2.6),
  ('Cc1c(N2CCCC(C)C2)nc2ccc(Br)cc2c1C(=O)NCC(CCC(=O)O)c1cc(F)ccc1Cl (centres unmarked)', 4.1),
  ('Cc1c(N2CCCCC2)nc2ccc(Br)cc2c1C(=O)NCC(CCC(=O)O)c1ccccc1C(F)(F)F (racemic) [Example 111]', 6.4),
  ('Cc1c(N2CCC[C@H]2C)nc2ccc(Br)cc2c1C(=O)NCC(CCC(=O)O)c1ccccc1Cl (single isomer, unassigned; (+)) [Example 82]', 3.9),
  ('Cc1c(N2CCOCC2)nc2ccc(Br)cc2c1C(=O)NCC(CCC(=O)O)c1cc(F)ccc1Cl (racemic)', 290);
